Target: α2β4 nAChR subtype (Rattus norvegicus, UniProt P12389+P12392)
Construct: expressed in transfected cells
Sequence (P12389 28-511): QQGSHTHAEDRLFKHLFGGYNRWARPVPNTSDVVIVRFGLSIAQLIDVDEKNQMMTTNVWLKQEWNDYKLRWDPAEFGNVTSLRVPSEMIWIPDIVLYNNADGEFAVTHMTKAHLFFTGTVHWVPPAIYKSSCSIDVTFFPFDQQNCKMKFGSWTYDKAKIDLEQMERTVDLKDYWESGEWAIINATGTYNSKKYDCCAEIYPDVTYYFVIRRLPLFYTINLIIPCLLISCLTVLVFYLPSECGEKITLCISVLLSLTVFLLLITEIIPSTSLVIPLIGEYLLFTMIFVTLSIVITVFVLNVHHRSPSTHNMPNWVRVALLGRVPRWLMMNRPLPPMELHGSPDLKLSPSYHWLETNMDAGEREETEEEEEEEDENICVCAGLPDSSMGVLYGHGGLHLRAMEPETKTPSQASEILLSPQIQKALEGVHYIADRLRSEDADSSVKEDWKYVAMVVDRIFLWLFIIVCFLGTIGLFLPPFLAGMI
Sequence (P12392 21-495): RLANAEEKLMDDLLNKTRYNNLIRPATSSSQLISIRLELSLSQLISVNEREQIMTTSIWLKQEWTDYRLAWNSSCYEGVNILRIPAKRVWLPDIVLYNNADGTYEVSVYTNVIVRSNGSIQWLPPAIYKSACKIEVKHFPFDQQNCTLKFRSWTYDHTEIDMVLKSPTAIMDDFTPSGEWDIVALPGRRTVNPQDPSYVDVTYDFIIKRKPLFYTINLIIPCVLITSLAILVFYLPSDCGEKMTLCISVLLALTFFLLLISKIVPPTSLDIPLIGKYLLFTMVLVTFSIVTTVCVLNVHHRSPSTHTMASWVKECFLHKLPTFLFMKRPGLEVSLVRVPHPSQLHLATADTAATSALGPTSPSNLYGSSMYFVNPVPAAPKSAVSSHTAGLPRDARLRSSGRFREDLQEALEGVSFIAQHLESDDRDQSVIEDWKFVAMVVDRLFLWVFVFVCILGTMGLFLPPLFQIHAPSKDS
Assay: biochemical
Type: binding
Settings: Ki α2β4
EXPERIMENTAL_ENDPOINT: Ki (nM)
Report the figure in nM without appending any unit label.

Documented Ki of O[C@H]1[C@H](c2ccc(Cl)nc2)[C@H]2CC[C@@H]1N2 (relative stereo) [Ligand 3] : 15.3

* * *

A collection of compounds and their measured pKi
Target: α2β2 nAChR subtype (Rattus norvegicus, UniProt P12389+P12390)
Construct: expressed in transfected cells
Experiment: biochemical
Assay type: binding
Conditions: Table 3; mean of 3 independent measurements; read-out: Ki α2β2
pKi is a log-scale quantity: -log10 of the concentration expressed in molar.

OCCCCC#Cc1cncc(OC[C@@H]2CCCN2)c1 [Ligand 27] = 8.82

Turning now to a further record.
Item: FCCCCC#Cc1cncc(OC[C@@H]2CCCN2)c1 [Ligand 42] | System: α2β2 nAChR subtype (Rattus norvegicus, UniProt P12389+P12390) | pKi: 8.46

* * *

Target: α3β2 nAChR subtype (Rattus norvegicus, UniProt P04757+P12390)
Construct: expressed in transfected cells
Sequence (P12390 25-500): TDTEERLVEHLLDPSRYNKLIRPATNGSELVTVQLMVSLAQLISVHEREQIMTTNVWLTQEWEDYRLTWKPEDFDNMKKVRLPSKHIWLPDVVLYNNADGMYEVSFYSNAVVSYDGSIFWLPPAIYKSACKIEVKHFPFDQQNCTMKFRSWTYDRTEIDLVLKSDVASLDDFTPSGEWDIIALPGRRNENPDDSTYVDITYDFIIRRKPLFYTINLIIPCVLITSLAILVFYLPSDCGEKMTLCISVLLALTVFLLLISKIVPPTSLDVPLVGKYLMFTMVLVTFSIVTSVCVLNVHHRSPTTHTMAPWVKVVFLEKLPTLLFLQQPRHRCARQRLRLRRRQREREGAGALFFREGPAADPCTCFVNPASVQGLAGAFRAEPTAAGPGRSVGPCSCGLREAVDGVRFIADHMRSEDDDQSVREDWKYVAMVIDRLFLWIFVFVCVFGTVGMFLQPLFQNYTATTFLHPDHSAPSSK
Sequence (P04757 26-499): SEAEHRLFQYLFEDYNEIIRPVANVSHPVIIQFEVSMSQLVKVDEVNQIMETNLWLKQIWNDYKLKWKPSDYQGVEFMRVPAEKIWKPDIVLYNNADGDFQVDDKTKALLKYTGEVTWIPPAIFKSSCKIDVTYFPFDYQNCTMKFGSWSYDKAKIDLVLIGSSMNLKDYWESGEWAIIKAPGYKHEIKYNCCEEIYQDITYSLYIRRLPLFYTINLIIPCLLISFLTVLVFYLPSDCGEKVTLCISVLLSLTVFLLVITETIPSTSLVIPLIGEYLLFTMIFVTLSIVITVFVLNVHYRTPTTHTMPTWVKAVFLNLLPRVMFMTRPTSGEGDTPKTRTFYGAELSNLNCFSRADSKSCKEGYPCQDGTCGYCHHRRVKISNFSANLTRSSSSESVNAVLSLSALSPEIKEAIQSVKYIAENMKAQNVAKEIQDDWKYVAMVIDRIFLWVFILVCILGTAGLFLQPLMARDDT
Assay: biochemical
Assay type: binding
Source text: In order to assess the steric and hydropathic effects of the C-5 substituents of the pyridine on the binding affinity and subtype-selectivity at neuronal nicotinic acetylcholine receptors. […] The binding affinity ratios for a ligand, calculated from its affinities at an α subunit paired with either the β2 osubunit or the β4 subunit, represents a measure of the selectivity of that ligand with regard to the β subunits.
Let's look at some compounds and their measured Ki.

O=c1cccc2n1C[C@@H]1CNC[C@H]2C1 [Cytisine, reference compound] = 8.06 nM
O=c1cccc2n1C[C@H]1C[C@@H]2CN(CCCOc2cccnc2)C1 = > 1000 nM
CN1CCC[C@H]1COc1cncc(C#CCNC(=O)OC(C)(C)C)c1 = 7.27 nM
CN1CCC[C@H]1COc1cncc(CCCCCCO)c1 = 13.4 nM
O=c1cccc2n1C[C@H]1C[C@@H]2CN(CCCCCN2C[C@@H]3C[C@H](C2)c2cccc(=O)n2C3)C1 = > 1000 nM
O=c1cccc2n1C[C@H]1C[C@@H]2CN(CCCN2C[C@@H]3C[C@H](C2)c2cccc(=O)n2C3)C1 = > 1000 nM
CN1CCC[C@H]1COc1cncc(C#CCCCCO)c1 = 12.6 nM
O=c1cccc2n1C[C@H]1C[C@@H]2CN(CCCCl)C1 = > 1000 nM

Measured Ki (α3β2 nAChR subtype (Rattus norvegicus, UniProt P04757+P12390)), entry CN1CCC[C@H]1COc1cncc(C#CC(C)(C)O)c1 : 19.7 nM

Item: CC(N)C#Cc1cncc(OC[C@@H]2CCCN2C)c1 (stereo partly shown) | System: α3β2 nAChR subtype (Rattus norvegicus, UniProt P04757+P12390) | Ki: 47.4 nM

* * *

Biological target: α3β2 nAChR subtype (Rattus norvegicus, UniProt P04757+P12390)
Construct: expressed in transfected cells
Test: biochemical
Type: binding
Details: Ki α3β2, Table 4, bivalent analogues
Parameter: pKi. Scope: all listed entries.
Units for pKi: none; it is -log10 of a concentration expressed in mol/L.

Study these solved cases before continuing.
Clc1ccc(C2CC3CCC2N3CCCN2C3CCC2C(c2ccc(Cl)nc2)C3)cn1 (stereo not shown) [Ligand 59b] = 8.28
Clc1ccc(C2CC3CCC2N3CCCCCCN2C3CCC2C(c2ccc(Cl)nc2)C3)cn1 (stereo not shown) [Ligand 59c] = 8.18
Clc1ccc(C2CC3CCC2N3CCCCCCCCCCN2C3CCC2C(c2ccc(Cl)nc2)C3)cn1 (stereo not shown) [Ligand 59d] = 8.17

Moving on to another compound below.
Recorded result, Clc1ccc(C2CC3CCC2N3CCN2C3CCC2C(c2ccc(Cl)nc2)C3)cn1 (stereo not shown) [Ligand 59a] , pKi: 8.25
